test: Rat in-vivo pharmacokinetic assay (PO); conditions: male SD rats, PO 10 mg/kg, plasma
value kind: Cmax (ng/mL)

molecular_string=OC[C@H]1O[C@@H](c2ccc(Cl)c(Cc3ccc(O[C@H]4C[C@@H]5C[C@@H]5C4)cc3)c2)[C@H](O)[C@@H](O)[C@@H]1O assay_result=6380
